For each record, write down the corresponding Herbicidal activity, DIGSA.
Tested on: warm season plant species
Assay: B2 Post-emergence efficacy Test 2, warm season plant species
Format: in vivo
Settings: Digitaria sanguinalis, 500 g/Ha, 15 days after application, 0-100 scale, 0=no damage, 100=total kill
Protocol: Seeds of a variety of test species (see Table B1) were sown in standard soil in pots. […] Herbicidal activity was evaluated 15 days after application on a 0-100 scale. […]
Answers are plain numbers.

Consider the worked cases shown below.
INSERT INTO measurements (compound, measured_quantity, quantitative_result) VALUES
  ('Cc1nn(C)c(=O)c(-c2c(F)ccc(Cl)c2CCc2ccccc2C(F)(F)F)c1O [Compound 1.066]', 'Herbicidal activity, DIGSA', 70),
  ('Cc1nn(C)c(=O)c(-c2c(F)ccc(Cl)c2CCc2ccc(C#N)cc2)c1O [Compound 1.024]', 'Herbicidal activity, DIGSA', 90),
  ('Cc1nn(C)c(=O)c(-c2c(F)ccc(Cl)c2CCc2ccc(F)cc2)c1OC(=O)C(C)C [Compound 1.125]', 'Herbicidal activity, DIGSA', 70),
  ('Cc1nn(C)c(=O)c(-c2c(F)ccc(Cl)c2CCc2ccc(Cl)cc2)c1OC(=O)C(C)C [Compound 1.089]', 'Herbicidal activity, DIGSA', 30);

// next entry
Value of Herbicidal activity, DIGSA reported for the compound Cc1nn(C)c(=O)c(-c2c(F)ccc(Cl)c2CCc2ccc(F)cc2)c1O [Compound 1.048] is 70

---

system: cool season plant species; test: B2 Post-emergence efficacy Test 2, cool season plant species; type: in vivo; conditions: LOLPE, 60 g/Ha, 15 days after application, 0=no damage, 100=total kill
measured_quantity: Herbicidal activity (0-100 scale) LOLPE
Numbers only.

INSERT INTO assay_data (mol, quantitative_result) VALUES
  ('Cc1nn(C)c(=O)c(-c2c(F)ccc(Cl)c2CCc2ccc(F)cc2)c1O', 90);

For each listed entry, give its Herbicidal activity (0-100 scale) LOLPE.
1. Cc1nn(C)c(=O)c(-c2c(F)ccc(Cl)c2CCc2ccc(Cl)cc2)c1OC(=O)C(C)C
2. Cc1nn(C)c(=O)c(-c2c(F)ccc(Cl)c2CCc2ccccc2C(F)(F)F)c1O

Outgoing:
80
80

# batch size: 2; output Herbicidal activity (0-100 scale) LOLPE per entry
1. Cc1nn(C)c(=O)c(-c2c(F)ccc(Cl)c2CCc2ccc(C#N)cc2)c1O
2. Cc1nn(C)c(=O)c(-c2c(F)ccc(Cl)c2CCc2ccc(F)cc2)c1OC(=O)C(C)C

Outgoing:
1. 70
2. 60

---

test system: cool season plant species; assay: B2 Post-emergence efficacy Test 2, cool season plant species; type: in vivo; settings: POAAN, 30 g/Ha, 15 days after application, 0=no damage, 100=total kill
I'd appreciate it if you could supply Herbicidal activity (0-100 scale) POAAN values for the items below.
Answers are plain numbers.

Examples with answers:
INSERT INTO assay_data (compound, system_under_test, quantitative_result) VALUES
  ('Cc1nn(C)c(=O)c(-c2c(F)ccc(Cl)c2CCc2ccc(F)cc2)c1OC(=O)C(C)C [Compound 1.125]', 'cool season plant species', 10),
  ('Cc1nn(C)c(=O)c(-c2c(F)ccc(Cl)c2CCc2ccc(C#N)cc2)c1O [Compound 1.024]', 'cool season plant species', 20),
  ('Cc1nn(C)c(=O)c(-c2c(F)ccc(Cl)c2CCc2ccccc2C(F)(F)F)c1O [Compound 1.066]', 'cool season plant species', 70),
  ('Cc1nn(C)c(=O)c(-c2c(F)ccc(Cl)c2CCc2ccc(F)cc2)c1O [Compound 1.048]', 'cool season plant species', 30);

Per the record, Cc1nn(C)c(=O)c(-c2c(F)ccc(Cl)c2CCc2ccc(Cl)cc2)c1OC(=O)C(C)C [Compound 1.089] has Herbicidal activity (0-100 scale) POAAN of 40

---

Field: Herbicidal activity (0-100 scale) TRZAW. Provide a value for each of the compounds that follow.
test system: cool season plant species; assay: B2 Post-emergence efficacy Test 2, cool season plant species; type: in vivo; details: TRZAW, 30 g/Ha, 15 days after application, 0=no damage, 100=total kill
Numbers only.

INSERT INTO measurements (compound, measured_quantity, quantitative_result) VALUES
  ('Cc1nn(C)c(=O)c(-c2c(F)ccc(Cl)c2CCc2ccc(F)cc2)c1O [Compound 1.048]', 'Herbicidal activity (0-100 scale) TRZAW', 10),
  ('Cc1nn(C)c(=O)c(-c2c(F)ccc(Cl)c2CCc2ccc(C#N)cc2)c1O [Compound 1.024]', 'Herbicidal activity (0-100 scale) TRZAW', 0),
  ('Cc1nn(C)c(=O)c(-c2c(F)ccc(Cl)c2CCc2ccccc2C(F)(F)F)c1O [Compound 1.066]', 'Herbicidal activity (0-100 scale) TRZAW', 10),
  ('Cc1nn(C)c(=O)c(-c2c(F)ccc(Cl)c2CCc2ccc(F)cc2)c1OC(=O)C(C)C [Compound 1.125]', 'Herbicidal activity (0-100 scale) TRZAW', 10);

Continue with the compound presented below.
The value of Herbicidal activity (0-100 scale) TRZAW recorded for Cc1nn(C)c(=O)c(-c2c(F)ccc(Cl)c2CCc2ccc(Cl)cc2)c1OC(=O)C(C)C [Compound 1.089] when tested on cool season plant species reads 0

---

tested on: cool season plant species; assay: B2 Post-emergence efficacy Test 2, cool season plant species; format: in vivo; details: ALOMY, 60 g/Ha, 15 days after application, 0=no damage, 100=total kill
For each entry below, report its Herbicidal activity (0-100 scale) ALOMY value.
One number for each entry.

INSERT INTO assay_data (mol, quantitative_result) VALUES
  ('Cc1nn(C)c(=O)c(-c2c(F)ccc(Cl)c2CCc2ccc(C#N)cc2)c1O', 50);

For each of the items listed, what is its Herbicidal activity (0-100 scale) ALOMY?
1. Cc1nn(C)c(=O)c(-c2c(F)ccc(Cl)c2CCc2ccc(F)cc2)c1OC(=O)C(C)C
2. Cc1nn(C)c(=O)c(-c2c(F)ccc(Cl)c2CCc2ccc(Cl)cc2)c1OC(=O)C(C)C
3. Cc1nn(C)c(=O)c(-c2c(F)ccc(Cl)c2CCc2ccc(F)cc2)c1O

Outgoing:
30
50
70

get_value(item= Cc1nn(C)c(=O)c(-c2c(F)ccc(Cl)c2CCc2ccccc2C(F)(F)F)c1O , readout=Herbicidal activity (0-100 scale) ALOMY) returns 70

---

Record form. Attribute: Herbicidal activity, ZEAMX. Fill in for each entry.
tested on: warm season plant species; experiment: B2 Post-emergence efficacy Test 2, warm season plant species; type: in vivo; details: Zea mays, 250 g/Ha, 15 days after application, 0-100 scale, 0=no damage, 100=total kill
One number for each entry.

INSERT INTO measurements (mol, system_under_test, quantitative_result) VALUES
  ('Cc1nn(C)c(=O)c(-c2c(F)ccc(Cl)c2CCc2ccc(C#N)cc2)c1O', 'warm season plant species', 70);

Provide reported Herbicidal activity, ZEAMX for each item, in the same order as listed.
1. Cc1nn(C)c(=O)c(-c2c(F)ccc(Cl)c2CCc2ccccc2C(F)(F)F)c1O
2. Cc1nn(C)c(=O)c(-c2c(F)ccc(Cl)c2CCc2ccc(F)cc2)c1O
3. Cc1nn(C)c(=O)c(-c2c(F)ccc(Cl)c2CCc2ccc(Cl)cc2)c1OC(=O)C(C)C
4. Cc1nn(C)c(=O)c(-c2c(F)ccc(Cl)c2CCc2ccc(F)cc2)c1OC(=O)C(C)C

Outgoing:
[30, 70, 90, 40]

---

I'd appreciate it if you could supply Herbicidal activity, DIGSA values for the items below.
system: warm season plant species; assay: B2 Post-emergence efficacy Test 2, warm season plant species; format: in vivo; conditions: Digitaria sanguinalis, 60 g/Ha, 15 days after application, 0-100 scale, 0=no damage, 100=total kill
Give bare numbers.

Known Herbicidal activity, DIGSA results, listed for orientation:
INSERT INTO results (mol, system_under_test, quantitative_result) VALUES
  ('Cc1nn(C)c(=O)c(-c2c(F)ccc(Cl)c2CCc2ccc(F)cc2)c1OC(=O)C(C)C', 'warm season plant species', 0),
  ('Cc1nn(C)c(=O)c(-c2c(F)ccc(Cl)c2CCc2ccc(C#N)cc2)c1O', 'warm season plant species', 40);

Working through the 2 compounds below one at a time, give Herbicidal activity, DIGSA for each.
1. Cc1nn(C)c(=O)c(-c2c(F)ccc(Cl)c2CCc2ccccc2C(F)(F)F)c1O
2. Cc1nn(C)c(=O)c(-c2c(F)ccc(Cl)c2CCc2ccc(F)cc2)c1O

Outgoing:
20
20

Notebook: Cc1nn(C)c(=O)c(-c2c(F)ccc(Cl)c2CCc2ccc(Cl)cc2)c1OC(=O)C(C)C , Herbicidal activity, DIGSA read as 0

---

I'd appreciate it if you could supply Herbicidal activity (0-100 scale) STEME values for the items below.
Tested on: cool season plant species
Experiment: B2 Post-emergence efficacy Test 2, cool season plant species
Assay type: in vivo
Settings: STEME, 125 g/Ha, 15 days after application, 0=no damage, 100=total kill
Procedure: Seeds of a variety of test species (see Table B1) were sown in standard soil in pots. […] Herbicidal activity was evaluated 15 days after application on a 0-100 scale. […]

Some molecules with known Herbicidal activity (0-100 scale) STEME results, for comparison:
INSERT INTO measurements (molecule, measured_quantity, result) VALUES
  ('Cc1nn(C)c(=O)c(-c2c(F)ccc(Cl)c2CCc2ccccc2C(F)(F)F)c1O [Compound 1.066]', 'Herbicidal activity (0-100 scale) STEME', 90),
  ('Cc1nn(C)c(=O)c(-c2c(F)ccc(Cl)c2CCc2ccc(C#N)cc2)c1O [Compound 1.024]', 'Herbicidal activity (0-100 scale) STEME', 90),
  ('Cc1nn(C)c(=O)c(-c2c(F)ccc(Cl)c2CCc2ccc(F)cc2)c1OC(=O)C(C)C [Compound 1.125]', 'Herbicidal activity (0-100 scale) STEME', 90),
  ('Cc1nn(C)c(=O)c(-c2c(F)ccc(Cl)c2CCc2ccc(Cl)cc2)c1OC(=O)C(C)C [Compound 1.089]', 'Herbicidal activity (0-100 scale) STEME', 90);

Cc1nn(C)c(=O)c(-c2c(F)ccc(Cl)c2CCc2ccc(F)cc2)c1O [Compound 1.048] on cool season plant species gives Herbicidal activity (0-100 scale) STEME = 100
